tested on: Karpas422 cells; experiment: Cell proliferation inhibition test (CCK8), Karpas422; type: cell-based; settings: Homo sapiens, KARPAS-422, 288 h; B-cell non-Hodgkin's lymphoma cell line, 12 days incubation, CCK8 cell viability
pIC50: −log10 of the molar value.
Label Satisfied when pIC50 < 7; otherwise Not satisfied.

Completed entries (count: 4):
COc1cc(C)[nH]c(=O)c1CN1CCn2ccc3cc(-c4c(C)noc4C)c(Cl)c(c32)C1=O: Not satisfied
COc1cc(C)[nH]c(=O)c1CN1CCn2ccc3cc([C@@H](OC)C4COC4)c(Cl)c(c32)C1=O: Satisfied
COc1cc(C)[nH]c(=O)c1CN1CCn2ccc3cc(-c4c(C)noc4C)c(C)c(c32)C1=O: Not satisfied
COc1cc(C)[nH]c(=O)c1CN1CCn2ccc3cc([C@H](OC)C4COC4)c(Cl)c(c32)C1=O: Not satisfied

## Input State whether 7 exceeds pIC50 recorded for COc1cc(C)[nH]c(=O)c1CN1C(=O)c2c(Cl)c(-c3c(C)noc3C)cc3ccn(c23)CC1C (stereo not drawn) .
## Output Not satisfied

## Input State whether 7 exceeds pIC50 recorded for `COc1cc(C)[nH]c(=O)c1CN1CCn2cnc3cc(-c4c(C)noc4C)c(Cl)c(c32)C1=O` .
## Output Satisfied

## Input State whether 7 exceeds pIC50 recorded for COc1cc(C)[nH]c(=O)c1CN1CCn2ccc3cc(C(OC)C4COC4)c(C)c(c32)C1=O (stereo not drawn) .
## Output Not satisfied
